- System: Saccharomyces cerevisiae
- TEST DESCRIPTION: protein stability index of tFT-peptide fusion (C-terminal peptide) (PSI (0-1 scale)); higher = more stable (slower turnover);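 note: PSI is a weighted mean of sequencing reads over stability bins, variants kept only with over 10 reads, mCherry proximal and sfGFP distal, peptide attached via GGGS linker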
- CONDITIONS: genetic background: wild type; temperature: 30 C
The following sequences are shown together with reported protein stability index values.
API doc: respond with a numeric literal and nothing else, no unit.

SPPPGSRTFAFR
0.697

The recorded protein stability index for "WTSGCLEIFRRE" is 0.702

The reported protein stability index of the sequence "VGPVDPGDSDGL" was 0.699

Lab book: protein stability index of "RVTNLQSRHTLH" noted as 0.692

---

- Test system: Saccharomyces cerevisiae
- TEST DESCRIPTION: protein stability index of tFT-peptide fusion (C-terminal peptide) (PSI (0-1 scale)); higher = more stable (slower turnover)
- CONDITIONS: genetic background: das1 deletion; temperature: 37 C
PARAMETER MEASURED: protein stability index
Note: the reply should be a number with no unit written.

Previously resolved entries follow.
VCLVLVVVWWSG
0.338
FFFSLFFVLFFA
0.348

The value of protein stability index measured for the sequence "SRSFWHAIVFLA" turned out to be 0.649

protein stability index for "LFTVCMIIQMVH" is 0.273

GET /value?item= "SYVFCYICGVQS" &field=protein stability index returns 0.596

In plain terms, "GVVCCGFFFLVV" has a documented protein stability index of 0.57

Lab note: "RRRNQAAHLYSH" gave protein stability index of 0.708

protein stability index for "EGLCCGAYFLVF" is 0.709

The value of protein stability index measured for the sequence "VVFWFPFVLRCC" turned out to be 0.296

protein stability index reported for this sequence "VAVYVGVGVSLG" : 0.546

// recorded protein stability index for "CPALTFCLLLSS" : 0.587

The reported value for "DRTRLFLLLIIA" in terms of protein stability index is 0.401

---

Listed here: items and their measured protein stability index.
- Test system: Saccharomyces cerevisiae
- TEST DESCRIPTION: protein stability index of tFT-peptide fusion (C-terminal peptide) (PSI (0-1 scale)); higher = more stable (slower turnover)
- CONDITIONS: genetic background: wild type; temperature: 30 C
Give the value as a plain number.

Worked set:
HCFWVVTGGSWF
0.691
PATPSPLSSSAP
0.711
VAVVSATVGASG
0.68
NGRPGPAEPELW
0.692
PLFLSLPLSFPS
0.697

# protein stability index (sequence: "PQPPRPARLCFP" ) is 0.705

Looking up "KGTQINNRCKLK" , I found its protein stability index recorded as 0.684

Form field protein stability index, entry "VSPGYWGPAPLC" : 0.682

The recorded protein stability index for entry "LPILPSPLPPPL" equals 0.69

The reported value for "HPNGVMIGKNPT" in terms of protein stability index is 0.702

protein stability index for "GGLEVDWVGCGV" is 0.701

Value of protein stability index reported for the sequence "RTSQLVSRATLD" is 0.691

Field protein stability index (entry "LSRFLPESVYMS" ) reads 0.679

Value of measured protein stability index for the entry "AGAWGREVVGWG" : 0.708

What the record says about "CPPPPPPPASPH" : protein stability index is 0.698

Note to self: protein stability index recorded for "YSGRCGVKLFNG" was 0.705

Quick note, protein stability index for "STPSPLTLPPLP" landed at 0.695

Given item "LPPTAPAPPSPP" , the value recorded as its protein stability index is 0.716

# sequence "DERSWLPLFFST" ; its protein stability index = 0.695
